procedure.summary: CCTE_Mundy_HCI_Cortical_NOG_BPCount: CCTE's Neurite Outgrowth Assay in rat cortical cells for Branch Point Count, Mundy Lab (AID 2284237)
Active and inactive are the calls of the source. The calls were made as follows: active = hit-call score of the fitted dose curve at least 0.9, where 1 is the maximum; inactive = score below 0.9.
Classes used: TRUE = active, FALSE = inactive

[[record]]
compound = "CC1(C)C(C=C(Cl)Cl)C1C(=O)OCc1cccc(Oc2ccccc2)c1 (stereo not given)"
discrete_label = "TRUE"

[[record]]
compound = "S=C(S)NCCNC(=S)S.[Mn+2].[S-]C([S-])=NCCN=C([S-])[S-].[Zn+2]"
discrete_label = "FALSE"

[[record]]
compound = "CSC(=O)c1cccc2nnsc12"
discrete_label = "FALSE"

[[record]]
compound = "CCN(CC)C(=O)c1cccc(C)c1"
discrete_label = "FALSE"

[[record]]
compound = "C#CCOC(=O)[C@@H](C)Oc1ccc(Oc2ncc(Cl)cc2F)cc1"
discrete_label = "FALSE"

